- Test system: Plasmodium berghei
- ASSAY SUMMARY: Luciferase/luciferin-expressing antifolate-resistant parasites were used to infect a culture of HepG2 cells that were pre-incubated with compounds. Infected hepatocytes emit light due to the luciferase reaction. Assay results are presented as the percent inhibition of light emission compared to control. […]
- Assay type: functional
- MEASUREMENT PARAMETERS: sporozoite, HEPG2TOX_HILL_SLOPE 0.925, HEPG2TOX_R_SQUARED 0.33, PBLUC_HILL_SLOPE 1.44, PBLUC_R_SQUARED 0.482, read-out: LUCIFERASE INFECTION ASSAY - IC50
QUANTITY KIND: IC50 (nM)
Record the value in nM, omitting the unit from your answer.

### Prompt Record lookup: for Plasmodium berghei, what IC50 belongs to CC1CCC2(CC1)NC(=O)N(Cc1ccc(C(=O)Nc3ccccc3)cc1)C2=O (stereo unspecified) ?
### Response 2560

All values here come from ChEMBL document CHEMBL4483862.
